Source listed as paper PMC8514580.

- assayed system: T1, CGH-1_(248–420) Q266A (C. elegans, UniProt Q95YF3 248-420, Q266A)
- T1 construct: Mutant of m1 made with the MutanBEST kit; source: E. coli Gold (DE3), purified (Ni-chelating resin, SEC Superdex 75)
- T1 sequence (looked up): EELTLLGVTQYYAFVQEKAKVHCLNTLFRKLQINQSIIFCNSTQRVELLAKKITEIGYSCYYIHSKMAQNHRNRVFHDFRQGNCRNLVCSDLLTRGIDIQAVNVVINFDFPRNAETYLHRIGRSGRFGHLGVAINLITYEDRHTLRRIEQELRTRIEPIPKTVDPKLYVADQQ
- measurement notes: ITC; ligand (peptide or CAR-1 fragment, 0.5 mM) injected into CGH-1_(248-420) or mutant (0.05 mM) in the cell; 20 °C; Buffer B (20 mM Tris-HCl pH 7.5, 150 mM NaCl); one-binding-site model
- details: both partners purified
readout name: Kd (nM)
Answers are plain numbers, in nM.

Exercise: Which Kd value belongs to LADPIDFDLDSDFDFAENLKLFEKDENDDQYYETVEK (Enhancer of decapping-3 (EDC-3, also called LSm16), C. elegans, FDF fragment, residues 235-271; Printed with free NH2 and COOH ends; also called EDC-3 peptide; EDC-3 FDF-FEK peptide; source: synthetic peptide (GL Biochem, Shanghai)) [EDC-3 FDF peptide (EDC-3_(235–271))] ?
Key: 1750
